test protocol: compound fluorescence in GFP channel, mTEFS cells – imaging, mTEFS fibroblasts, cherry-pick, artefact control for X-chromosome reactivation project, dose response (AID 743396);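 further: raw share of Hoechst-counted cells scored GFP positive without control normalization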
experimental setup: mTEFS fibroblasts autofluorescence, GFP-channel imaging, 3 days; at 19.5 µM (top of the series); cells pretreated with 5-aza-dC
What % fluorescent cells increase was measured for each of the following?
The answer is to be given in %; state only the numeric part.

Inquiry: Query: % fluorescent cells increase; subject: `CC1=NN(c2ccc(C)c(C)c2)C(=O)/C1=C\C=C\c1ccc([N+](=O)[O-])o1`
Reply text: -0.007

Inquiry: Would you kindly share the measured % fluorescent cells increase for Cc1ccc(S(=O)(=O)N2CCOCC2)cc1C(=O)OCC(=O)NC1CCS(=O)(=O)C1 (configuration not stated) ?
Reply text: 0.086

Inquiry: If you can, please state the reported % fluorescent cells increase value of `COc1ccccc1C#Cc1ccc2c(c1)O[C@H](CN(C)Cc1cncnc1)[C@@H](C)CN([C@H](C)CO)S2(=O)=O` .
Reply text: 0

Inquiry: Report % fluorescent cells increase for `Cc1ccc(S(=O)(=O)NN2C(=O)/C(=C/c3ccccn3)SC2=S)cc1` please.
Reply text: 0.042

Inquiry: Please report the recorded % fluorescent cells increase for `CNc1ccc([N+](=O)[O-])cc1C(=O)O` .
Reply text: -0.007

Inquiry: Query: % fluorescent cells increase; subject: `CCOC(=O)Nc1ccc2nc(-c3cscn3)[nH]c2c1`
Reply text: 0.274

Inquiry: Param item = `Nc1c(C(=O)O)cnn1-c1ccc([N+](=O)[O-])cc1` ; retrieve measured % fluorescent cells increase.
Reply text: 0.002

----------
test protocol: compound fluorescence in GFP channel, mTEFS cells – imaging, mTEFS fibroblasts, cherry-pick, artefact control for X-chromosome reactivation project, dose response (AID 743396);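 further: raw share of Hoechst-counted cells scored GFP positive without control normalization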
experimental setup: mTEFS fibroblasts autofluorescence, GFP-channel imaging, 3 days; at 19.5 µM (top of the series); cells pretreated with 5-aza-dC
Assign % fluorescent cells increase to each entry below.
Expressed in %, but write only the number.

Inquiry: Field request: % fluorescent cells increase | item: `O=C(C[C@H]1CC[C@H]2[C@@H](COC[C@@H](O)CN2C(=O)Nc2ccccc2)O1)NCCc1ccncc1`
Reply text: 0.044

Inquiry: Query: % fluorescent cells increase; subject: `Cc1cccc(NC(=O)Cn2cnc3c(oc4nc5c(cc43)COC(C)(C)C5)c2=O)c1`
Reply text: 2.35

Inquiry: # input compound: `Cc1cccc(NCc2ccc(O)c3ncccc23)c1C` ; wanted: its % fluorescent cells increase
Reply text: 0.074

Inquiry: Quick one: % fluorescent cells increase for `CCCOc1ccc(C(=O)Nc2ccc(CN3CCOCC3)cc2)cc1` ?
Reply text: 0

Inquiry: Reported % fluorescent cells increase for C=CCn1c(SCC(=O)N(CC)C2CCS(=O)(=O)C2)nc2sc3c(c2c1=O)CCC3 (configuration not stated) : what is it?
Reply text: 0.034

Inquiry: Look up % fluorescent cells increase: `CCN(CC)CCCNC1=C(Cl)C(=O)c2ccccc2C1=O`
Reply text: -0.011

Inquiry: Item `COc1cc(NS(=O)(=O)c2ccc3ccccc3c2)c2ncccc2c1` has what recorded % fluorescent cells increase?
Reply text: 0

Inquiry: Fill blank: measured % fluorescent cells increase of the compound Oc1cc2c(c(Cl)c1O)CCNCC2c1ccccc1 (configuration not stated) is ____.
Reply text: -0.007

Inquiry: What value of measured % fluorescent cells increase is listed for `COc1cccc(CNC(=O)c2cc(S(=O)(=O)N3CCCC3)cn2C)c1` ?
Reply text: 0

Inquiry: For the compound CCOCCCNC(=O)C(c1ccc(C)cc1)N(Cc1cccs1)C(=O)c1ccccn1 (configuration not stated) , what % fluorescent cells increase is on record?
Reply text: 0

Inquiry: Any idea what its % fluorescent cells increase is? The compound is `Nc1[nH]c(=O)nc(Nc2ccccc2)c1N=O`
Reply text: 0

Inquiry: Requested read-out: % fluorescent cells increase. Entry: CC(C)CCN1CCN(Cc2cc3ccccc3[nH]2)CC1CCO (configuration not stated)
Reply text: 0

Inquiry: Which value of % fluorescent cells increase has been reported for `C[C@@H]1ON(C)[C@H]2C[C@H]3c4cc(-c5cccc(F)c5)ccc4CCN3C(=O)[C@@H]12` in the records?
Reply text: 0

Inquiry: So what does the record say about % fluorescent cells increase for `CC(C)CC#Cc1ccc([C@@H]2[C@@H](CO)N3C(=O)CN(C(=O)c4cccc(F)c4)C[C@H]23)cc1` ?
Reply text: -0.108

Inquiry: Fill blank: measured % fluorescent cells increase of the compound `O=C(CCl)N=c1sccn1Cc1cccc2ccccc12` is ____.
Reply text: 9.31

Inquiry: Give the measured % fluorescent cells increase of `CC(=O)Nc1ccc(N2Cc3ccccc3C2)cc1` .
Reply text: 0.093

Inquiry: Returns the measured % fluorescent cells increase for the input compound. Input: `COC(=O)c1ccc(-n2c(C)cc(C(=O)COC(=O)C3=COCCO3)c2C)cc1`
Reply text: -0.007

Inquiry: Suppose we examine the compound `O=C(O)CSc1ncccn1` ; what % fluorescent cells increase value has been reported?
Reply text: 0.143

Inquiry: Would you mind telling me what % fluorescent cells increase value was observed for `COc1cc(/C=C(\C#N)c2nc3ccccc3o2)ccc1O` ?
Reply text: 2.54

Inquiry: Entry `CC(=O)Nc1ccc(S(=O)(=O)N(C)c2ccc(OCC(=O)NCCc3ccccc3F)cc2)cc1` : reported % fluorescent cells increase = ?
Reply text: 0.014

Inquiry: Given the entry `O=[N+]([O-])/C=C/c1ccc2c(ccn2Cc2ccccc2)c1` , report its measured % fluorescent cells increase.
Reply text: 0

Inquiry: Give the measured % fluorescent cells increase of `CC(=O)c1c(COC(=O)c2ccccc2Cl)nc2ccccc2[n+]1[O-]` .
Reply text: 0.001

Inquiry: Would you mind telling me what % fluorescent cells increase value was observed for `CCNC(=O)C[C@@H]1CC[C@H]2[C@@H](COC[C@@H](O)CN2C(=O)C2CCCC2)O1` ?
Reply text: 0.746

Inquiry: Which value of % fluorescent cells increase has been reported for `CCc1ccccc1OCC(=O)Nc1ccc(N2CCCC2)cc1C` in the records?
Reply text: 0.096

Inquiry: Query (compound): `COc1ccc(OC)c(NC(=O)Nc2ccc3[nH]ccc3c2)c1` ; field requested: % fluorescent cells increase
Reply text: 0

Inquiry: Quick check: % fluorescent cells increase of `O=C1N[C@H](Cc2ccccc2)COCc2cn(nn2)CC[C@@H]1Cc1ccccc1` ?
Reply text: 0.024

Inquiry: For the compound `CCOC(=O)N1CCN(C(=O)Cn2ccc3c(OC)cccc3c2=O)CC1` , what % fluorescent cells increase is on record?
Reply text: 0.012

Inquiry: // lookup % fluorescent cells increase for `COc1ccc2c3c([nH]c2c1)[C@H](CO)N(C(=O)c1cccnc1)CC31CCN(Cc2ccccc2)CC1`
Reply text: 0.458

Inquiry: Any idea what % fluorescent cells increase was measured for COc1ccc(N2C(=O)C3CCCN3C2c2cccc(OC)c2)cc1 (configuration not stated) ?
Reply text: 0.021

Inquiry: Consider the compound shown here: `Cc1cc(NC(=O)CSc2nnc(-c3c[nH]c4ccccc34)n2-c2ccc(F)cc2)no1` What is its recorded % fluorescent cells increase?
Reply text: 0.026

Inquiry: Need % fluorescent cells increase of `C[C@H](CO)N1C[C@H](C)[C@H](CN(C)Cc2ccccc2)Oc2ccc(NS(C)(=O)=O)cc2C1=O` , thanks.
Reply text: 0.123

Inquiry: Could you share which % fluorescent cells increase value was measured for `COc1ccc(-n2nc(C#N)c(Cl)cc2=O)cc1` ?
Reply text: -0.006

Inquiry: % fluorescent cells increase lookup needed for `COC(=O)c1c(NC(=O)c2ccccc2)sc2c1CC(C)(C)NC2(C)C` , thanks.
Reply text: -0.011

Inquiry: What value of % fluorescent cells increase has been reported for the following compound? `CC(=NNc1ccc2ccccc2n1)c1ccccn1`
Reply text: 15.8

Inquiry: Give its % fluorescent cells increase value. Item: CCOC(=O)C1(Cc2ccccc2C)CCCN(C(=O)CSC)C1 (configuration not stated)
Reply text: 0

Inquiry: Could you share which % fluorescent cells increase value was measured for `CC(=O)c1ccc(NC(=O)COC(=O)CCc2ccc(S(=O)(=O)N3CCOCC3)cc2)cc1` ?
Reply text: 0.108

Inquiry: Can you look up the measured % fluorescent cells increase of `CC(=O)Nc1sc(C)c(C)c1C(=O)OCC(=O)Nc1cc(S(C)(=O)=O)ccc1Cl` for me?
Reply text: 0.274

----------
test protocol: compound fluorescence in GFP channel, mTEFS cells – imaging, mTEFS fibroblasts, cherry-pick, artefact control for X-chromosome reactivation project, dose response (AID 743396);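 further: raw share of Hoechst-counted cells scored GFP positive without control normalization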
experimental setup: mTEFS fibroblasts autofluorescence, GFP-channel imaging, 3 days; at 19.5 µM (top of the series); cells pretreated with 5-aza-dC
Would you mind telling me the reported % fluorescent cells increase of each entry?
# unit: % | format: bare number

Inquiry: Returns the measured % fluorescent cells increase for the input molecule. Input: `Oc1cccc(/C=N/NC(=S)NCCN2CCOCC2)c1O`
Reply text: 0

Inquiry: Requested field: % fluorescent cells increase. Item: CCOC(=O)C1=C(C)NC(=S)NC1/C=C/c1ccccc1 (configuration not stated)
Reply text: -0.004

Inquiry: // % fluorescent cells increase lookup, key: `Cc1c(Nc2cc(Cl)c3nonc3c2[N+](=O)[O-])c(=O)n(-c2ccccc2)n1C`
Reply text: -0.007

Inquiry: Need % fluorescent cells increase of `COc1ccccc1NC(=O)N[C@H]1C=C[C@@H](CC(=O)N[C@@H](C)c2ccccc2)O[C@@H]1CO` , thanks.
Reply text: 0.342

Inquiry: Please report the recorded % fluorescent cells increase for `Cc1ccc2c(COC(=O)C34CC5CC(CC(C5)C3)C4)cc(=O)oc2c1` .
Reply text: 0

Inquiry: What value of % fluorescent cells increase has been reported for the following molecule? CCOc1ccc(N2C(=O)CC(Sc3nc(O)c(CC)c(=O)[nH]3)C2=O)cc1 (configuration not stated)
Reply text: -0.007

Inquiry: Entry `O=C(COC(=O)c1cc(=O)[nH]c(=O)[nH]1)Nc1cccc(S(=O)(=O)N2CCCCC2)c1` : reported % fluorescent cells increase = ?
Reply text: 0

Inquiry: Data request, read-out % fluorescent cells increase, for `Cc1cccc(OCC(=O)N(C)c2c(N)n(Cc3ccccc3)c(=O)[nH]c2=O)c1C`
Reply text: 0.02

Inquiry: // % fluorescent cells increase lookup, key: CC1CCCC(NC(=O)CSc2cccc[n+]2[O-])C1C (configuration not stated)
Reply text: 0.029

Inquiry: Name the recorded % fluorescent cells increase for `O=C(N/N=C/c1ccc(Br)s1)c1ccc([N+](=O)[O-])cc1` .
Reply text: -0.007

Inquiry: Recorded % fluorescent cells increase of `COc1cc(CN2CCC(C(=O)NCC(C)(C)CN(C)C)CC2)ccc1OCc1ccccc1` , please.
Reply text: 0.013

Inquiry: Endpoint output: % fluorescent cells increase of `O=C(NCCO)/C(=C/c1ccco1)NC(=O)c1ccco1` . Value?
Reply text: 0.007

Inquiry: I have this molecule here, `CO[C@H]1CN(C)C(=O)c2ccc(NC(=O)Cc3ccccc3)cc2OC[C@@H](C)N(C)C[C@H]1C` , and I need its recorded % fluorescent cells increase.
Reply text: 0

Inquiry: Which % fluorescent cells increase reading was recorded for the molecule `COc1ccc(C(=O)CN2Cc3ccccc3C2=N)cc1` ?
Reply text: 0.041

Inquiry: Recorded % fluorescent cells increase for COC(=O)Nc1ccc(S(=O)(=O)N2CCCC(C(=O)N3CCN(C)CC3)C2)cc1 (configuration not stated) , please?
Reply text: 0

Inquiry: Fill in the blank: the reported % fluorescent cells increase of `CC(=O)OCCNc1cc(Sc2nc3ccccc3[nH]2)c2nonc2c1[N+](=O)[O-]` is ____.
Reply text: 9.92

Inquiry: Give the measured % fluorescent cells increase of O=C1C2C3C=CC(CNS(=O)(=O)c4ccccc4[N+](=O)[O-])(O3)C2C(=O)N1c1ccccc1 (configuration not stated) .
Reply text: 0.044

Inquiry: Given `C=CCNC(=O)N[C@@H](Cc1ccccc1)C(=O)OC` , state its recorded % fluorescent cells increase.
Reply text: 1.04

Inquiry: Item `CCOC(=O)c1sc(-c2ccc(F)cc2)cc1NC(=O)Nc1ccccc1OC` has what recorded % fluorescent cells increase?
Reply text: -0.011

Inquiry: Look at this molecule and give its reported % fluorescent cells increase. `Nc1nc(Nc2ccc(Cl)cc2)c(NC=O)c(=O)[nH]1`
Reply text: 18.8

Inquiry: For the molecule `O=C1c2ccc3c4c(ccc(c24)C(=O)N1c1cccc(O)c1)C(=O)N(c1cccc(O)c1)C3=O` , what % fluorescent cells increase is on record?
Reply text: -0.003

Inquiry: Look up % fluorescent cells increase: C=CCN(CC(O)c1cccc([N+](=O)[O-])c1)C(C)CCc1ccccc1 (configuration not stated)
Reply text: 1.4

Inquiry: Give the measured % fluorescent cells increase of O=C(NC1=C(NC2CCS(=O)(=O)C2)C(=O)c2ccccc2C1=O)c1ccccc1 (configuration not stated) .
Reply text: 0

Inquiry: Item CCc1ccc(N2CC(C(=O)Nc3cc(C)on3)CC2=O)cc1 (configuration not stated) has what recorded % fluorescent cells increase?
Reply text: 0.015

Inquiry: Which measured % fluorescent cells increase value corresponds to `O=C1CCCC(O)=C1Sc1cc(Cl)c(Cl)cc1Cl` ?
Reply text: 0

Inquiry: Reported % fluorescent cells increase, molecule `C=CCn1c(=S)[nH]c2scc(-c3ccco3)c2c1=O` : ____
Reply text: 0

Inquiry: Look up % fluorescent cells increase for this molecule: `COc1ccc2c(c1)c(/C=N/Nc1nc3ccccc3[nH]1)c(C)n2C`
Reply text: 3.71

Inquiry: I'd like to know its % fluorescent cells increase. The molecule in question is `O=C1N(c2ccccc2)C[C@@H]2C[C@@H](c3cc4ccccc4o3)N3CCC[C@@]123`
Reply text: -0.007

Inquiry: I would be grateful if you could share the reported % fluorescent cells increase for CC1Oc2ccccc2C=C1/C=N\NC(=O)c1cccnc1 (configuration not stated) .
Reply text: 0

Inquiry: Returns the measured % fluorescent cells increase for the input molecule. Input: `Cc1nn(-c2ccccc2)c2ncc(C(=O)c3cc(Cl)ccc3O)cc12`
Reply text: 0

Inquiry: Form field: reported % fluorescent cells increase of `COc1ccc(-n2ncc(Cl)c(Cl)c2=O)cc1`
Reply text: 0

Inquiry: % fluorescent cells increase for `CCOC(=O)Nc1cc2c(c(N)n1)N=C(c1ccccc1)CN2` ?
Reply text: 0.925

Inquiry: Name the recorded % fluorescent cells increase for `Cc1ccc(Cl)cc1NC(=O)CCC(=O)O` .
Reply text: -0.002

Inquiry: What value of % fluorescent cells increase has been recorded for this entry: `COc1ccccc1CNC(=O)COC(=O)COc1ccccc1F`
Reply text: 1.84

Inquiry: Return reported % fluorescent cells increase; argument: `CCCn1c(SCC(=O)NCc2ccc(C)cc2)n[nH]c1=O`
Reply text: -0.007

Inquiry: Given the entry CC(OCCN(C)C)C(=O)C12CC3CC(CC(C3)C1)C2 (configuration not stated) , report its measured % fluorescent cells increase.
Reply text: 0.039

Inquiry: If you can, please state the reported % fluorescent cells increase value of `Cc1cccn2c(=O)c3cc(C(=O)NCc4ccc(F)cc4)c(=N)n(CCCN4CCOCC4)c3nc12` .
Reply text: 0
